Origin of the recorded values: PubChem BioAssay (NCI)

TGI: recorded values
System: HL-60(TB) leukemia
assayText: NCI tumour cell line growth inhibition, 48 h

Examples with their reported TGI follow.
>  <compound>
C#Cc1c(/C=C/C(=O)OCC)ccc2ccccc12

>  <TGI>
26.1 µM

$$$$
>  <compound>
CN(/N=C/c1cccc2cccnc12)c1ccc(Cl)cc1[N+](=O)[O-]

>  <TGI>
> 100 µM

$$$$
>  <compound>
CCCCCCCCCCCCCCCCCCNC(=S)/N=C\C1=C(O)c2ccccc2C1=O

>  <TGI>
> 100 µM

$$$$
>  <compound>
O=C(c1ccccc1)C1OC12C(=O)Nc1c(Cl)cc(Cl)cc12 (stereo not given)

>  <TGI>
36 µM

$$$$
>  <compound>
O=C1C=CC(=Nc2cc(Br)c(O)c(Br)c2)C=C1

>  <TGI>
51.2 µM

$$$$
>  <compound>
COc1ccc(C2SCC(=O)N2NC(=O)c2ccc(NC(C)=O)cc2)c(OC)c1 (stereo not given)

>  <TGI>
> 100 µM

$$$$
>  <compound>
COC1CC(COCc2ccccc2)CC(OC)O1 (stereo not given)

>  <TGI>
1.84 µM

$$$$
>  <compound>
S=C1CCSc2c(ccc3ccccc23)N1

>  <TGI>
> 100 µM

$$$$

Suppose we examine the compound COC(=O)c1cc(C(=CCC[C@H]2CC[C@@]3(C)C(CCC4C3CC[C@@]3(C)C4CC[C@@H]3C(C)CCCC(C)C)C2)c2cc(Cl)c(O)c(C(=O)OC)c2)cc(Cl)c1O (stereo not given in full) ; what TGI value has been reported? > 10 µM
